Where do these numbers come from? They come from patent US6262106A.

Recorded Ratio, one value per entry.
# System: PCP site of the NMDA receptor (cortical NMDA receptors)
# Experiment Notes: NMDA receptor binding, [3H]-MK-801 displacement at PCP site, rat cortical membranes
# Assay Conditions: (IC50 Cortex / IC50 Cerebellum)
# Experimental: The NMDA receptor contains several distinct binding domains that can regulate opening of the cationic channel. […] Frozen rat cortex or cerebellum, homogenized in 10 volumes of ice-cold 0.32-M. sucrose is centrifuged at 1,000 g for 12 min and the supernatant stored on ice whilst the pellet is resuspended, rehomogenized and recentrifuged twice more. […] Non-specific binding is determined using MK-801 (10-μM). […]
Counter-ions that a name gives are not always drawn.
Reply with just the number.

Guide cases for Ratio, answers given:
Query :: Short answer please: Ratio, PCP site of the NMDA receptor (cortical NMDA receptors), entry Cc1ccccc1C1(C(=N)N)C2CC3CC(C2)CC1C3.Cl (centres unmarked) [Example 5]
Result :: 1.7

Query :: For PCP site of the NMDA receptor (cortical NMDA receptors), provide Ratio of N=C(N)C1(c2ccc(F)cc2)C2CC3CC(C2)CC1C3 (centres unmarked) [Example 6, hydrochloride] please.
Result :: 1.8

Query :: Form field: Ratio recorded for Cc1ccc(C2(C(=N)N)C3CC4CC(C3)CC2C4)cc1 (centres unmarked) [Example 4, hydrochloride] with PCP site of the NMDA receptor (cortical NMDA receptors) (enter value)
Result :: 1.9

Query :: Recorded Ratio for COc1ccc(C2(C(=N)N)C3CC4CC(C3)CC2C4)cc1 (centres unmarked) [Example 8, hydrochloride] with PCP site of the NMDA receptor (cortical NMDA receptors), please?
Result :: 2.0

Moving on to the next molecule.
Query :: // fetch PCP site of the NMDA receptor (cortical NMDA receptors) Ratio for N=C(N)C1(c2ccc(Cl)cc2)C2CC3CC(C2)CC1C3 (centres unmarked) [Example 7, hydrochloride]
Result :: 1.7
